EXPERIMENTAL_PROTOCOL: Cyclic voltammetry, repeated charging-discharging cycles (integrated area over 100 scans)
Format: physicochemical
MEASUREMENT_PARAMETERS: Table 2

[
  {
    "COMPOUND_STRUCTURE": "COc1cc[n+]2c3c1CC[n+]1ccc(OC)c(c1-3)CC2.[Cl-].[Cl-]",
    "Capacity over 100 cycles": 0.80
  },
  {
    "COMPOUND_STRUCTURE": "CCOc1cc2c3[n+](c1)CCc1cc(OCC)c[n+](c1-3)CC2.Cl",
    "Capacity over 100 cycles": 0.99
  },
  {
    "COMPOUND_STRUCTURE": "Cc1cc2c3[n+](c1)CCc1cc(C)c[n+](c1-3)CC2.[Cl-].[Cl-]",
    "Capacity over 100 cycles": 0.95
  },
  {
    "COMPOUND_STRUCTURE": "[Cl-].[Cl-].c1cc2c3[n+](c1)CCCc1ccc[n+](c1-3)CCC2",
    "Capacity over 100 cycles": 0.98
  },
  {
    "COMPOUND_STRUCTURE": "[Cl-].[Cl-].c1cc2c3[n+](c1)CCc1ccc[n+](c1-3)CC2",
    "Capacity over 100 cycles": 0.98
  }
]
